Experimental Target: Metabotropic glutamate receptor 3 (Rattus norvegicus, UniProt P31422)
Sequence (P31422 whole entry): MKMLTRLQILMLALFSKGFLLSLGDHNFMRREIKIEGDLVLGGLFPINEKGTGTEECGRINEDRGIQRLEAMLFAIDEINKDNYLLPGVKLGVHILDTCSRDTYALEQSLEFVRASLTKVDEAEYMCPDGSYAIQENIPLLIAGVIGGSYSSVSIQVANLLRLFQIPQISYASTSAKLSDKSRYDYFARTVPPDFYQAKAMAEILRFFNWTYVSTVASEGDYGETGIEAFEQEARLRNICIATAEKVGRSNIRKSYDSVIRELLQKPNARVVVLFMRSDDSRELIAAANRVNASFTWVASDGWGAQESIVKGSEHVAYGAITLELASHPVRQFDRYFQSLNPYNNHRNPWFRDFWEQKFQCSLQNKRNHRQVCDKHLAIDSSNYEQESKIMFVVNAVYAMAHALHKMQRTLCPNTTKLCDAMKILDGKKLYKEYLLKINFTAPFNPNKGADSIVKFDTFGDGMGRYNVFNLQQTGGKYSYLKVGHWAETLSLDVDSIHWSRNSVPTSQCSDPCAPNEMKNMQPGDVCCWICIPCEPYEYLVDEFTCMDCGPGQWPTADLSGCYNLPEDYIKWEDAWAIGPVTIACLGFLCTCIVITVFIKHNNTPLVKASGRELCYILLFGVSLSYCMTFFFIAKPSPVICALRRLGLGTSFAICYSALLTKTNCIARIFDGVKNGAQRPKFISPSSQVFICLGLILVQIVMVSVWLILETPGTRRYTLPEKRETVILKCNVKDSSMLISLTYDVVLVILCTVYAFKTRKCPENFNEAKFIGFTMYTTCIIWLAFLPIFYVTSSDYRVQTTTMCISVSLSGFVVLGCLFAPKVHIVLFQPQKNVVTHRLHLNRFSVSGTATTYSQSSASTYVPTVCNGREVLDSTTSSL
Protocol Text: mGlu3 NAM potency via calcium readout, dose response, mGlu3 NAM project, TREx293 cells, Galpha15, calcium flux (AID 651840)
Readout Kind: IC50
Form field: result (number plus unit)

INPUT: # IC50 lookup, item COc1ccc(C#Cc2ccc(C(=O)N3CC4CCC(O)C4C3)cc2)cc1 (stereo unspecified)
OUTPUT: 3.5 µM

* * *

Recorded EC50, one value per entry.
Experimental Target: Short transient receptor potential channel 4 (Mus musculus, UniProt Q9QUQ5)
Sequence (Q9QUQ5 whole entry): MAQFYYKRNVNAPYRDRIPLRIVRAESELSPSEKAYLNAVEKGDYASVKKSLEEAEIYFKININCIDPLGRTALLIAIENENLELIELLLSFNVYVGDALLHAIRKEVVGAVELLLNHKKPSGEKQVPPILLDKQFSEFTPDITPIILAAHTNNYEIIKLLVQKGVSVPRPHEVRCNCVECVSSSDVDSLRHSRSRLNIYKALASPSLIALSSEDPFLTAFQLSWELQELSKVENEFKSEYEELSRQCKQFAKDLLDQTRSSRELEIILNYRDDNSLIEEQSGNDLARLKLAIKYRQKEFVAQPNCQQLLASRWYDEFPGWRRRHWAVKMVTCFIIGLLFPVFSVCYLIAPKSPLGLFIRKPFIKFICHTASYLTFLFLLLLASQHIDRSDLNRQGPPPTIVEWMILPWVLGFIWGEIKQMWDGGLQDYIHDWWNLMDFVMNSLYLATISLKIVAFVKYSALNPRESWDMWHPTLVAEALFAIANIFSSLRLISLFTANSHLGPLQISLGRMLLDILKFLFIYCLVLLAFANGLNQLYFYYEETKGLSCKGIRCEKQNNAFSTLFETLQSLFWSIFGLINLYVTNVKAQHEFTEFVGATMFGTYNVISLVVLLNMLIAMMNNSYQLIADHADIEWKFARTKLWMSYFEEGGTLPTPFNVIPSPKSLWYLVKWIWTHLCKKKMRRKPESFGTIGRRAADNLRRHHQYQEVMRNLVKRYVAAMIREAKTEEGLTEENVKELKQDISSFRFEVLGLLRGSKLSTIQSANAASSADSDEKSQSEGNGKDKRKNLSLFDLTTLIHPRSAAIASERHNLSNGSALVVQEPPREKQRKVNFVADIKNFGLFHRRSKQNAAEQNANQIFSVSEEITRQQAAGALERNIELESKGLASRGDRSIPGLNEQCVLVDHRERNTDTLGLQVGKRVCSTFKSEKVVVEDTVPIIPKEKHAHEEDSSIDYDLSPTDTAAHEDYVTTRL
Protocol Text: mouse TRPC4 channel inhibitors, dose response, cell-based, HEK293 TRPC4/mu-opioid, Fluo-4 calcium (AID 434942);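 note: potency of inhibitors blocking the TRPC4 calcium response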
Format: functional
Calls of active or inactive are those of the source.

Would you please look over these solved cases?
O=C(Nc1ccccc1Oc1cccnc1)C1CCCN(Cc2ccc(F)cc2)C1 (stereo not given) : 3350 nM (active)
O=C(Cc1ccccc1[N+](=O)[O-])OCc1cccc([N+](=O)[O-])c1 : 376 nM (active)
Cc1c(C(=O)NCC(c2ccco2)N(C)C)oc2c(Cl)cccc12 (stereo not given) : 267 nM (active)
CN(C)C(CNC(=O)c1ccc(C(F)(F)F)cc1)c1ccco1 (stereo not given) : 53.3 nM (active)

INPUT: # EC50 lookup, item O=C(O)CN1C(c2ccccc2O)Nc2ccc(Br)cc2C1c1ccccc1 (stereo not given)
OUTPUT: 5310 nM (active)

* * *

Experimental Target: Endoribonuclease toxin MazF (Escherichia coli K-12, UniProt P0AE70)
Sequence (P0AE70 whole entry): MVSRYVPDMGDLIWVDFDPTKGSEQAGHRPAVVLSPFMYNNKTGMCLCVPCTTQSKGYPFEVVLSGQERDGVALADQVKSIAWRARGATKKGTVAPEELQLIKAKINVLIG
Protocol Text: fluorescent RNA oligo signal without MazF, dose response, counter-screen for MazEF activator project, biochemical, fluorescence, single-stranded RNase substrate (AID 588502)
Format: functional
Calls of active or inactive are those of the source.
Give your call using only these classes: active, inactive

Use these answered entries as a reference point.
Cc1sc(NC(=O)COc2cccc(-n3cnnn3)c2)c(C#N)c1C : inactive
Cc1cccc(-n2c(/C=C/c3ccc([N+](=O)[O-])o3)nc3ccccc3c2=O)c1 : active
Nc1c(C(=O)c2ccc(Cl)cc2)sc2nc3c(cc12)CCC3 : inactive
COc1ccc2nc3cc(Cl)ccc3c(C#N)c2c1 : inactive
Cc1cccc(-n2[nH]c(C)c(/C=N/c3ccc4[nH]c(O)nc4c3)c2=O)c1 : inactive

With those in mind, consider the next compound.
INPUT: Query: recorded result category for CCOC(=O)CSc1nc2cc(C)ccc2cc1C#N in this test
OUTPUT: inactive

* * *

Experimental Target: ATP-dependent molecular chaperone HSP82 (Candida albicans (strain WO-1) (Yeast))
Sequence (C4YTQ8 whole entry): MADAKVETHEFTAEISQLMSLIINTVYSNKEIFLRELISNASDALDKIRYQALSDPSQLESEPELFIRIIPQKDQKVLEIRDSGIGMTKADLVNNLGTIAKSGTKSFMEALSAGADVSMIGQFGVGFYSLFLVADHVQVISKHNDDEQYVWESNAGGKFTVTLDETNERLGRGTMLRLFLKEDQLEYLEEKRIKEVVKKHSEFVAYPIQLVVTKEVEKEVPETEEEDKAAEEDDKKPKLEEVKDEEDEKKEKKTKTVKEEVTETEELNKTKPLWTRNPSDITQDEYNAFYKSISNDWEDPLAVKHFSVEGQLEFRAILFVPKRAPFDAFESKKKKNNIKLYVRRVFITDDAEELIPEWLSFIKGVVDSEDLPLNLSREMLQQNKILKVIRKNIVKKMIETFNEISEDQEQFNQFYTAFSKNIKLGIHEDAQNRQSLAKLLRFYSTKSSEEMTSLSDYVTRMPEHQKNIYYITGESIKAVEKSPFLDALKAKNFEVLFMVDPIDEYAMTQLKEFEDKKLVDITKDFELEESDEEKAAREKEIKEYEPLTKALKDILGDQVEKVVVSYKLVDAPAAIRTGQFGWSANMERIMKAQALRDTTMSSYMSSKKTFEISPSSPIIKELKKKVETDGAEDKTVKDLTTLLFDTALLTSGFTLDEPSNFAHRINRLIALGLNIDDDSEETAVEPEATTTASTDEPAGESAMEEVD
Protocol Text: loss of DOC-induced GRE-beta-galactosidase reporter signal, dose response, Hsp90 inhibitor project, S. cerevisiae, luminescence (AID 2400);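 note: beta-galactosidase luminescence from glucocorticoid response element reporter as proxy for Hsp90 function; inhibitor potency where signal loss means Hsp90 inhibition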
Type: functional, cell-based
Active and inactive are the calls of the source.
Give your call using only these classes: 1 (active), 0 (inactive)

Use these answered entries as a reference point.
CCNc1nc(NC(C)C)nc(NC(C)(C)C)n1 : 0
O=C(N/N=C/c1cc2c3c(c1O)CCCN3CCC2)c1ccccc1O : 1
CN1CCN(C(c2ccc(C(F)(F)F)cc2)c2cc(Cl)c3cccnc3c2O)CC1 (stereo not given) : 1
Oc1ccc(N=Nc2ccc3c(c2)OCCO3)c2ncccc12 : 1

With those in mind, consider the next compound.
INPUT: Query: recorded result category for Cc1ccc(C(=O)Nc2cccc(-c3cn4ccccc4n3)c2)cc1 in this test
OUTPUT: 0

* * *

Recorded IC50, one value per entry.
Experimental Target: Sentrin-specific protease 7 (Homo sapiens);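 note: Luminescence-based dose-response confirmation of ultra-high-throughput screening hits, measuring inhibition of SENP7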
Sequence (Q9BQF6 whole entry): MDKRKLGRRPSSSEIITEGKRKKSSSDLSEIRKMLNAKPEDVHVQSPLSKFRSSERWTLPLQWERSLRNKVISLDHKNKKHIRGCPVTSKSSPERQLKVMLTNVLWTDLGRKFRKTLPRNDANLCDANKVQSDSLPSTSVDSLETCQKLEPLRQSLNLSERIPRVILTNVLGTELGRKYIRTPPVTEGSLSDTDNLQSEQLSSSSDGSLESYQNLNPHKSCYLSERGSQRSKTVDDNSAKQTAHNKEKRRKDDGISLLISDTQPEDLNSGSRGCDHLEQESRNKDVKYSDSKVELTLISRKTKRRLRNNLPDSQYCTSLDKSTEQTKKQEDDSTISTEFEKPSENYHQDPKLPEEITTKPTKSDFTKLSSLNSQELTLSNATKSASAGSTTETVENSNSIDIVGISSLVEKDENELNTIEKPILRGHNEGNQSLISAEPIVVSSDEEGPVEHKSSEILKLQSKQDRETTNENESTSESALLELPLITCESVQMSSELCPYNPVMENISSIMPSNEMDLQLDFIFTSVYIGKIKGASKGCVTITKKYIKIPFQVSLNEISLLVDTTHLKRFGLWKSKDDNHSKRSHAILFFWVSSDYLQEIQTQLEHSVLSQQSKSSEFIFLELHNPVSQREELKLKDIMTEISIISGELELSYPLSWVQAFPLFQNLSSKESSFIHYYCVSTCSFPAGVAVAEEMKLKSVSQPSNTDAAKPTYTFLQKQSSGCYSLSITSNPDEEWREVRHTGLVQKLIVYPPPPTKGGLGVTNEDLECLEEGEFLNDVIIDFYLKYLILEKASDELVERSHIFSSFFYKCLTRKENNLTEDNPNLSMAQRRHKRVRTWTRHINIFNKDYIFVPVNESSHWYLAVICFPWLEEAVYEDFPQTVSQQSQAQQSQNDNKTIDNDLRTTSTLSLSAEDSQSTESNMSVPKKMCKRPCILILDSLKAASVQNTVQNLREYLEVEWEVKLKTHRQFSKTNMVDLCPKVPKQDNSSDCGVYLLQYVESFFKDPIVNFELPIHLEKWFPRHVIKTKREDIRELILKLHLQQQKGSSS
Assay type: functional
Calls of active or inactive are those of the source.

Would you please look over these solved cases?
CC1CCCN(C(=O)c2ccc(-c3ccccc3Cl)o2)C1 (centres undefined) : 15.2 µM (active)
COn1c(-c2ccccc2)nc2ccc(Cl)cc21 : 13.1 µM (active)
NC(=O)c1c(NC(=O)c2cc3ccccc3o2)sc2c1CCC2 : 3.74 µM (active)

We now examine a further molecule.
INPUT: # IC50 lookup, item CCOC(=O)/C(=N\Nc1ncnc2ccccc12)c1ccc(OC)cc1
OUTPUT: 3.39 µM (active)

* * *

Experimental Target: Ubiquitin-conjugating enzyme E2 N (Homo sapiens)
Sequence (P61088 whole entry): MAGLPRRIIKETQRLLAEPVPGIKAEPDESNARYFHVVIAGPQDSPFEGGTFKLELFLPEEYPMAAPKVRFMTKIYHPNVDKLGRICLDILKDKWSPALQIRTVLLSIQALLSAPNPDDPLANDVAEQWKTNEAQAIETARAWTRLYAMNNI
Type: functional
Active and inactive are the calls of the source.
Readout Kind: IC50

NNC(=O)c1ccc(CN2C(=O)c3cccc4cccc2c34)cc1 : 3.55 µM (active)

INPUT: # IC50 lookup, item O=C(NCCN1CCN(c2ccccc2)CC1)c1ccc2c(c1)[nH]c(=S)n1c3ccccc3nc21
OUTPUT: > 20 µM (inactive)

INPUT: Try the molecule CCC(=O)c1cc2c(C)cc(=O)oc2c(C)c1O
OUTPUT: > 20 µM (inactive)

INPUT: Try the molecule COc1ccc(/C=N/NC(=O)Cc2csc(Nc3cccc(C(F)(F)F)c3)n2)c(OC)c1
OUTPUT: 10.1 µM (active)

* * *

The following are reported AC50 results, target or system Cytochrome P450 2C9 (Homo sapiens, UniProt P11712).

INPUT: # AC50 lookup, item CCCCOC(=O)CSc1nnc(-c2cc(OC)c(OC)c(OC)c2)o1
OUTPUT: 8.91 µM (inconclusive)

INPUT: Try the molecule O=C1CC(N(O)C2CC(=O)N(Cc3ccccc3)C2=O)C(=O)N1Cc1ccccc1 (stereo not drawn)
OUTPUT: 11.2 µM (inconclusive)

INPUT: Try the molecule Cc1ccccc1-c1ccc2ncnc(NCc3cccs3)c2c1
OUTPUT: 1.26 µM (inconclusive)

INPUT: Try the molecule Cc1cccc(CNc2ccnc(-c3cccc(C#N)c3)n2)c1
OUTPUT: 0.794 µM (inconclusive)

INPUT: Try the molecule CCCCCCCCCOc1ccc2[nH]cc(CCN)c2c1
OUTPUT: 25.1 µM (inconclusive)

INPUT: Try the molecule COc1ccccc1-c1cncnc1NCCc1cnc[nH]1
OUTPUT: 0.501 µM (inconclusive)

INPUT: Try the molecule CC1Cc2ccccc2N1C(=O)c1cc2c(=O)n3ccccc3nc2n1C (stereo not drawn)
OUTPUT: 14.1 µM (inconclusive)

INPUT: Try the molecule CCCCCCCCCCCCC(=O)N1CCCC[C@H]1CNC(=O)[C@@H](N)CCCCN
OUTPUT: 10 µM (inconclusive)

* * *

Experimental Target: Paired box protein Pax-8 (Homo sapiens)
Sequence (Q06710 whole entry): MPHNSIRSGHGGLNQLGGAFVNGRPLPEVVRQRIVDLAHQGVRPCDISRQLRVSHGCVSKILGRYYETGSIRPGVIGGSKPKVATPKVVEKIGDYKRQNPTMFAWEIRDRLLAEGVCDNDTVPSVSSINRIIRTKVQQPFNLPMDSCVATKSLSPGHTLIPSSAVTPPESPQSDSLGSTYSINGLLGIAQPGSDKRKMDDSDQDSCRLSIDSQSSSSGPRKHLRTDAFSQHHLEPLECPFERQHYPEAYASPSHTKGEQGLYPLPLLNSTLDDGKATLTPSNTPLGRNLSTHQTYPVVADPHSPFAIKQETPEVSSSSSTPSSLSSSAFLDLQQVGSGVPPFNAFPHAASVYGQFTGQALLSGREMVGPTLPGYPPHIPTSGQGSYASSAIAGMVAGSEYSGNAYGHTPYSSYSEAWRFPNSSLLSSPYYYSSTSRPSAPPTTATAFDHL
Protocol Text: inhibitors of PAX8-driven TPO luciferase reporter, dose response, RMG-I cells, cherry-pick (AID 687027);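 note: luciferase reporter driven by Pax8 target thyroperoxidase promoter measured by SteadyGlo luminescence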
Assay type: functional, cell-based
Calls of active or inactive are those of the source.
Readout Kind: AC50

Would you please look over these solved cases?
COc1ccccc1N1CCN(Cc2cc(Br)c(O)c3ncccc23)CC1 : 1.82 µM (active)
C[C@@H]1CN([C@@H](C)CO)C(=O)Cc2cc(NC(=O)Nc3ccc4c(c3)OCO4)ccc2O[C@H]1CN(C)CC1CCCCC1 : 9.15 µM (active)
Cc1ccc(S(=O)(=O)Nc2ccc3c(c2)C(=O)N([C@@H](C)CO)C[C@H](C)[C@@H](CN(C)C(=O)Nc2ccc(C(F)(F)F)cc2)OCCCC[C@H](C)O3)cc1 : 3.14 µM (active)
Cc1ccc(S(=O)(=O)N(C)C[C@@H]2Oc3cc(C#Cc4ccncc4)ccc3S(=O)(=O)N([C@H](C)CO)C[C@@H]2C)cc1 : 6.03 µM (active)

INPUT: # AC50 lookup, item COc1ccc(S(=O)(=O)N(C)C[C@H]2OCCCC[C@H](C)Oc3ccc(NS(=O)(=O)c4ccc(F)cc4)cc3C(=O)N([C@@H](C)CO)C[C@@H]2C)cc1
OUTPUT: 4.67 µM (active)

INPUT: Try the molecule FC(F)(F)c1nnc2c(Sc3ccccn3)nc3ccccc3n12
OUTPUT: 7.08 µM (active)

INPUT: Try the molecule C[C@@H]1CCCCO[C@H](CN(C)C(=O)Nc2ccc(C(F)(F)F)cc2)[C@@H](C)CN([C@@H](C)CO)C(=O)c2cc(NS(=O)(=O)c3cccs3)ccc2O1
OUTPUT: 6.63 µM (active)

INPUT: Try the molecule Cc1ccccc1/N=C1\N=C(N)c2ccccc21
OUTPUT: 17.3 µM (active)

INPUT: Try the molecule C[C@H](CO)N1C[C@H](C)[C@@H](CN(C)Cc2ccc(-c3ccccc3)cc2)Oc2ccc(NC(=O)C3CC3)cc2CC1=O
OUTPUT: 26.1 µM (active)
